- SYSTEM NAME: T1, human GIP receptor (human) (UniProt P48546)
- T1 sequence (looked up): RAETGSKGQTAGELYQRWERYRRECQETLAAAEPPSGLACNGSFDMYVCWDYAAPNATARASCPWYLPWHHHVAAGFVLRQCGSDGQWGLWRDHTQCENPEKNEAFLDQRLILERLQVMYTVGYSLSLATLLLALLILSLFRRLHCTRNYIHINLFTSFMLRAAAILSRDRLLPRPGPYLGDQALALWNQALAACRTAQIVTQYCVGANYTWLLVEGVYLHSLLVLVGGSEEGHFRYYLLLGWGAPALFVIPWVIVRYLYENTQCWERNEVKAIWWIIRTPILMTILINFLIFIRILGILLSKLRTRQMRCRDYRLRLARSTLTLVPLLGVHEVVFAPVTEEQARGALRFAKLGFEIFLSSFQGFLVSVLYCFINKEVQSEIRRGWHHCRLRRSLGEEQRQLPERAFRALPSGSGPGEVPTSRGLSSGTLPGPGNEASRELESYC
- METHOD DESCRIPTION: cell-based or functional assay
Strictly below 0.02 nM in Relative cAMP EC50, nM (0.1% casein): Fulfilled. Otherwise: Not fulfilled.

Determine whether this binder shows Relative cAMP EC50, nM (0.1% casein) lower than 0.02 nM (ties excluded): YXQGTXTSDYSIXLDKIAQXAFIKYLEEGGPSSGAPPPS (synthetic construct; SITE 2: note = 2-Aminoisobutyric Acid; SITE 6: note = alpha-methyl-2-fluoro-L-phenylalanine; SITE 13: note = alpha-methyl-leucine; SITE 20: note = 2-Aminoisobutyric Acid; SITE 24: note = Lysine is chemically modified through conjugation of the epsilon-amino group of the Lysine s) [Example 455]
Fulfilled

Does this binder meet the criterion Relative cAMP EC50, nM (0.1% casein) < 0.02 nM? YXQGTXTSDXXIXLDXKAQXXFIEYLIEGGPSSGEPPPEEG (synthetic construct; SITE 2: note = 2-Aminoisobutyric Acid; SITE 6: note = alpha-methyl-2-fluoro-L-phenylalanine; SITE 10: note = 3-(4-Pyridyl)-L-alanine; SITE 11: note = alpha-methyl-L-serine; SITE 13: note = alpha-methyl-leucine; SITE 16: note = L-ornithine; SITE 17: note = Lysine is chemically mo) [Example 476]
Fulfilled

Relative cAMP EC50, nM (0.1% casein) strictly < 0.02 nM for this binder? YXQGTFTSDFSXXLDKKAQXAFIEYLLEAGPSSGEPPPSGT ((AEEA)2-γGlu-C18 diacid on Lys; non-natural residues; amide; synthetic construct; SITE 2: note = 2-Aminoisobutyric Acid; SITE 12: note = L-ornithine; SITE 13: note = alpha-methyl-leucine; SITE 17: note = Lysine is chemically modified through conjugation of the epsilon-amino group of the Lysine side chain with (2-[2-(2-Amino-ethoxy)-ethoxy]-acetyl)2-(gamma-Glu)) [Example 156]
Not fulfilled

State whether 0.02 nM exceeds Relative cAMP EC50, nM (0.1% casein) recorded for YXQGTXTSDXSILLDXIAQXAFIKYLEEGGPSSGAPPPS (synthetic construct; SITE 2: note = 2-Aminoisobutyric Acid; SITE 6: note = alpha-methyl-2-fluoro-L-phenylalanine; SITE 10: note = 3-(4-Pyridyl)-L-alanine; SITE 16: note = L-ornithine; SITE 20: note = 2-Aminoisobutyric Acid; SITE 24: note = Lysine is chemically modified through conjugation of the eps) [Example 454] .
Fulfilled

Given the entry YXQGTFTSDFSXXLDKKAQXAFIEYLLEGGESSGAPPPGGS (non-natural residues, lysine acylation, C-terminal amide; synthetic construct; SITE 2: note = 2-Aminoisobutyric Acid; SITE 12: note = L-ornithine; SITE 13: note = alpha-methyl-leucine; SITE 17: note = Lysine is chemically modified through conjugation of the epsilon-amino group of the Lysine side chain with (2-[2-(2-Amino-ethoxy)-ethoxy]-acetyl)-(gamma-Glu)) [Example 161] , would its reported Relative cAMP EC50, nM (0.1% casein) be below 0.02 nM?
Not fulfilled

Please let me know if YXQGTFTSDFSXXLDKKAQXAFIEYLLEGGHSSGEPPPGGS (non-natural residues; lipidated Lys AEEA-γGlu-C18 diacid; C-term amide; synthetic construct; SITE 2: note = 2-Aminoisobutyric Acid; SITE 12: note = L-ornithine; SITE 13: note = alpha-methyl-leucine; SITE 17: note = Lysine is chemically modified through conjugation of the epsilon-amino group of the Lysine side chain with (2-[2-(2-Amino-ethoxy)-ethoxy]-acetyl)-(gamma-Glu)) [Example 164] shows Relative cAMP EC50, nM (0.1% casein) below 0.02 nM.
Not fulfilled

Strictly below 0.02 nM: is that where Relative cAMP EC50, nM (0.1% casein) of YXQGTXTSDXXIXLDXKAQXXFIEXLIEGGPSSGEPEPSEG (synthetic construct; SITE 2: note = 2-Aminoisobutyric Acid; SITE 6: note = alpha-methyl-2-fluoro-L-phenylalanine; SITE 10: note = 3-(4-Pyridyl)-L-alanine; SITE 11: note = alpha-methyl-L-serine; SITE 13: note = alpha-methyl-leucine; SITE 16: note = L-ornithine; SITE 17: note = Lysine is chemically mo) [Example 481] sits?
Fulfilled

Identify whether the binder YXQGTXTSDXSIXLDXKAQXXFIEYLIEGGPSSGEPPPEEG (synthetic construct; SITE 2: note = 2-Aminoisobutyric Acid; SITE 6: note = alpha-methyl-2-fluoro-L-phenylalanine; SITE 10: note = 3-(4-Pyridyl)-L-alanine; SITE 13: note = alpha-methyl-leucine; SITE 16: note = L-ornithine; SITE 17: note = Lysine is chemically modified through conjugation of the epsil) [Example 477] records Relative cAMP EC50, nM (0.1% casein) below 0.02 nM.
Fulfilled

Given YXQGTFTSDXSRXLDKKAQXAFIEYLIEXGESSGAPPPSGS (Aib, 4Pal, αMeL; lipidated Lys; C-terminal amide; synthetic construct; SITE 2: note = 2-Aminoisobutyric Acid; SITE 10: note = 3-(4-Pyridyl)-L-alanine; SITE 13: note = alpha-methyl-leucine; SITE 17: note = Lysine is chemically modified through conjugation of the epsilon-amino group of the Lysine side chain with (2-[2-(2-Amino-ethoxy)-ethoxy]-acetyl)) [Example 187] , is recorded Relative cAMP EC50, nM (0.1% casein) strictly lower than 0.02 nM?
Not fulfilled

Hi there! Is Relative cAMP EC50, nM (0.1% casein) for YXQGTFTSDXSXXLDKKAQXAFIEYLLEXGHSSGAPPPSGS (Aib, F(4CN), Orn, αMeL; lysine acylated C18 diacid; amide; synthetic construct; SITE 2: note = 2-Aminoisobutyric Acid; SITE 10: note = 4-cyano-L-phenylalanine; SITE 12: note = L-ornithine; SITE 13: note = alpha-methyl-leucine; SITE 17: note = Lysine is chemically modified through conjugation of the epsilon-amino group of the Lysine side chain with (2-[2-(2-) [Example 190] below 0.02 nM, do you know?
Not fulfilled

Answer whether the binder YXQGTFTSDFSXXLDKKAQXAFIEYLLAGGPSSGEPPPSGS (Aib, Orn, αMeL; acylated Lys (AEEA-γGlu2-C18 diacid); C-terminal amide; synthetic construct; SITE 2: note = 2-Aminoisobutyric Acid; SITE 12: note = L-ornithine; SITE 13: note = alpha-methyl-leucine; SITE 17: note = Lysine is chemically modified through conjugation of the epsilon-amino group of the Lysine side chain with (2-[2-(2-Amino-ethoxy)-ethoxy]-acetyl)-(gamma-Glu)) [Example 153] has Relative cAMP EC50, nM (0.1% casein) strictly less than 0.02 nM
Not fulfilled

Reference for the values: patent US20240270821A1
